# Test system: T-47D breast
# assay_method_text: NCI-60 one-dose screen, 48 h (100 = growth as untreated, 0 = no growth, -100 = all killed)
# condition_set: 10 µM unless noted
# Protocol: Growth inhibition of the T-47D human tumor cell line is measured as a screen for anti-cancer activity. Cells are grown in 96 well plates and exposed to the test compound for 48 hours. Compounds are tested at a single concentration, which is 10^-5 M for most compounds. The reported endpoint is percent growth (GI% or GIPRCNT), where numbers from 0 - 100% represent growth inhibition, and numbers from -100% - 0 represent cell death. For example, a value of 40 represents 60% growth inhibition. […]
About 83,000 compounds went through this panel and 20% of them were active in at least one assay; those are over-represented in the sample as a whole.
readout_label: growth (%)
Give bare numbers, in %.

# count of solved cases: 5
structure_string: O=C1NC(=S)NC(=O)C1=Cc1ccccc1
assayed_target: T-47D breast
growth / %: 93.4
//
structure_string: O=C(CCCN1CCC2(CC1)C(=O)NCN2c1ccc(F)cc1)c1ccc(F)cc1
assayed_target: T-47D breast
growth / %: 102
//
structure_string: N#CC(C#N)=Cc1ccc2ccccc2c1
assayed_target: T-47D breast
growth / %: 110
//
structure_string: CC(=O)[O][Hg][c]1ccccc1
assayed_target: T-47D breast
growth / %: -42.1
//
structure_string: CC1=C(SCCC(=O)OCC(=O)NCCC[Te]c2ccccc2)C(=O)c2ccccc2C1=O
assayed_target: T-47D breast
growth / %: 18.9

Now turn to the next compound.
Data request: Please list growth recorded for the compound CC1(C)N=C(N)N=C(N)N1c1ccc(OCCCCNC(=O)Nc2cccc(S(=O)(=O)F)c2)c(Cl)c1
Data returned: 115

---

# Tested on: DU-145 prostate
# assay_method_text: NCI-60 one-dose screen, 48 h
# condition_set: 10 µM unless noted
About 83,000 compounds went through this panel and 20% of them were active in at least one assay; those are over-represented in the sample as a whole. Active and inactive are the calls of the source. Rule for the calls: active = growth percent below 10; inactive = the rest.
Outcome (select one): 1 for active, -1 for inactive

Take a look at these entries with their results.
molecule: Oc1ccc(O)c2c1C1(Cl)C(Cl)=C(Cl)C2(Cl)C1(Cl)Cl
assigned_category: -1
--
molecule: CC1(C)N=C(N)N=C(N)N1c1cccc(C(=O)Nc2cccc(S(=O)(=O)F)c2)c1
assigned_category: -1

Data request: Per the assay record, what outcome was assigned to S=P(Nc1ccccc1)(Nc1ccccc1)c1ccccc1 ?
Data returned: -1

Data request: Per the assay record, what outcome was assigned to CC(=O)[O][Hg][c]1nc2c(c(=O)n(C)c(=O)n2C)n1C ?
Data returned: -1

Data request: Per the assay record, what outcome was assigned to NC(Cc1ccc2c(c1)OCO2)c1ccc2c(c1)OCO2 (centres undefined) ?
Data returned: -1

---

# Test system: MCF7 breast
# assay_method_text: NCI-60 one-dose screen, 48 h
# condition_set: 10 µM unless noted
About 83,000 compounds went through this panel and 20% of them were active in at least one assay; those are over-represented in the sample as a whole. Activity calls are given as the source filed them. The calls were made as follows: active = growth percent below 10; inactive = the rest.
Outcome (select one): active, inactive

compound: CC12CCC3C(CC=C4CC(O)CCC43C)C1C/C(=C\N1CCOCC1)C2=O (centres undefined)
assigned_category: inactive

Data request: Per the assay record, what outcome was assigned to O=C1NC(=O)C(O)(C2(O)C(=O)NC(=O)NC2=O)C(=O)N1 ?
Data returned: inactive

Data request: Per the assay record, what outcome was assigned to C[C@]12CC[C@H](OC3OC(O)C(O)C(O)C3O)C=C1CCC1C2CC[C@]2(C)[C@@H](c3ccc(=O)oc3)CC[C@]12O (some centres undefined) ?
Data returned: active

Data request: Per the assay record, what outcome was assigned to C[C@@H]1CC[C@@H]2[C@@H]1[C@H](OC(=O)/C=C/C1CCCCC1)[C@]1(C3CCCCC3)C[C@@H](OC(=O)CO)[C@@]2(C)O1 ?
Data returned: inactive

Data request: Per the assay record, what outcome was assigned to CCN(CC)CCOc1c(C(C)C)cccc1C(C)C ?
Data returned: inactive

Data request: Per the assay record, what outcome was assigned to Oc1ccc(Br)cc1CN1CCN(Cc2ccc(Cl)cc2)CC1 ?
Data returned: inactive

---

# Test system: HCT-116 colon
# assay_method_text: NCI-60 one-dose screen, 48 h
# condition_set: 10 µM unless noted
This is part of a sample that, as a whole, favours compounds with a hit. Of some 83,000 tested, about 20% had one in any assay. Activity calls are given as the source filed them. The calls were made as follows: active = growth percent below 10; inactive = the rest.
Outcome (select one): active, inactive

Take a look at these entries with their results.
compound: O=C(CCc1ccco1)NC1CCN(CC2(c3ccc(Cl)cc3)CCC2)CC1
assigned_category: active

compound: CCCCCCCCCCCCOc1ccc(C(=O)Oc2ccc(CSP3(=O)OCC4OC(n5cnc6c(N)ncnc65)C(F)C4OP(=O)(O)OCC4OC(n5ccc(=O)[nH]c5=O)C(F)C4O3)cc2)cc1 (stereo not given)
assigned_category: inactive

compound: O=CN1N=C(c2ccc3c(c2)OCO3)CC1c1sc(N(CCCl)CCCl)nc1Cl (stereo not given)
assigned_category: inactive

compound: CC(C)CCC[C@@H](C)[C@H]1CC[C@H]2[C@@H]3CC=C4C[C@@H](OC(=O)Cc5ccc(N(CCCl)CCCl)cc5)CC[C@]4(C)[C@H]3CC[C@]12C
assigned_category: inactive

compound: CN1CC2CCC(C1)C2=O
assigned_category: inactive

Data request: Per the assay record, what outcome was assigned to N#CC(C#N)=Cc1ccc2ccccc2c1 ?
Data returned: inactive

Data request: Per the assay record, what outcome was assigned to O=C(CCCN1CCC2(CC1)C(=O)NCN2c1ccc(F)cc1)c1ccc(F)cc1 ?
Data returned: inactive

---

# Tested on: HL-60(TB) leukemia
# assay_method_text: NCI-60 one-dose screen, 48 h (100 = growth as untreated, 0 = no growth, -100 = all killed)
# condition_set: 10 µM unless noted
# Procedure: Growth inhibition of the HL-60(TB) human tumor cell line is measured as a screen for anti-cancer activity. Cells are grown in 96 well plates and exposed to the test compound for 48 hours. Compounds are tested at a single concentration, which is 10^-5 M for most compounds. The reported endpoint is percent growth (GI% or GIPRCNT), where numbers from 0 - 100% represent growth inhibition, and numbers from -100% - 0 represent cell death. For example, a value of 40 represents 60% growth inhibition. […]
This is part of a sample that, as a whole, favours compounds with a hit. Of some 83,000 tested, about 20% had one in any assay.
readout_label: growth (%)
Give bare numbers, in %.

# count of solved cases: 5
molecule: COc1ccc(-c2nc3sccn3c2/C=C/C(=O)c2c[nH]c3ccccc23)cc1
assayed_target: HL-60(TB) leukemia
readout_number: 117
//
molecule: S=P(N1CCCCCC1)(N1CC1)N1CC1
assayed_target: HL-60(TB) leukemia
readout_number: 84.3
//
molecule: O=C1NC(=O)C(c2ccccc2)O1 (stereo not given)
assayed_target: HL-60(TB) leukemia
readout_number: 99.5
//
molecule: CCC12CCC[N+]3([O-])CCC4(C(=Nc5ccccc54)C(O)(C(=O)OC)C1)C23 (stereo not given)
assayed_target: HL-60(TB) leukemia
readout_number: 124
//
molecule: COc1ccc2c(c1)Oc1nc(N)c(C#N)c(N)c1C2Sc1ccc(SC)cc1 (stereo not given)
assayed_target: HL-60(TB) leukemia
readout_number: -22.3

Lab note: each molecule below needs its growth filled in.
1. CCSc1sc(-c2ccc(C)cc2)nc1[P+](c1ccccc1)(c1ccccc1)c1ccccc1
2. COc1cc(/C=N/NC(=O)CCN2c3ccccc3Sc3ccccc32)cc(OC)c1OC
3. CCOC(=O)c1c(NC(=O)c2ccccc2)sc2c(O)c(CN(CC)CC)ccc12
4. CC1=CC(=Nc2ccc(N(C)C)cc2)C=C(C)C1=O
5. CN1C(=O)N(C)C2C1NN=c1s/c(=C\c3ccc(C(F)(F)F)cc3)c(=O)n12 (stereo not given)

Data returned:
1: -47; 2: 77.9; 3: 0.395; 4: 42.8; 5: -6.25

---

# Test system: M14 melanoma
# assay_method_text: NCI-60 one-dose screen, 48 h
# condition_set: 10 µM unless noted
The panel holds about 83,000 compounds, 20% with a hit somewhere; the sample as a whole holds those more often. The source made the active and inactive calls. How the source made its calls: active means growth percent below 10; inactive means the rest.
Outcome (select one): 1 for active, -1 for inactive

Take a look at these entries with their results.
compound: CCC(CO)NC1CCCCC1 (centres undefined)
assigned_category: -1

compound: CC1(C)N=C(N)N=C(N)N1c1ccc(CCCCc2ccc(S(=O)(=O)F)cc2)cc1
assigned_category: -1

compound: O=C(CCCN1CCC2(CC1)C(=O)NCN2c1ccc(F)cc1)c1ccc(F)cc1
assigned_category: -1

compound: CCOC(=O)Nc1cc(Cl)c([N+](=O)[O-])c(NC(=O)OCC)n1
assigned_category: -1

compound: COc1cc2c(cc1OC)CN(C)C(C)C2 (centres undefined)
assigned_category: -1

Data request: Per the assay record, what outcome was assigned to CC1(C)N=C(N)N=C(N)N1c1cccc(C(=O)Nc2cccc(S(=O)(=O)F)c2)c1 ?
Data returned: -1

Data request: Per the assay record, what outcome was assigned to O1[As]2O[As]3O[As]1O[As](O2)O3 ?
Data returned: 1

Data request: Per the assay record, what outcome was assigned to COC1=CC(=O)OC(CCc2ccc3c(c2)OCO3)C1 (centres undefined) ?
Data returned: -1

Data request: Per the assay record, what outcome was assigned to Oc1ccc2c3c1O[C@H]1c4[nH]c5ccccc5c4C[C@@]4(O)C(C2)N(CC2CC2)CC[C@]314 ?
Data returned: -1

Data request: Per the assay record, what outcome was assigned to CCN(CC)c1ccc(C=C2C(=O)NC(=S)NC2=O)cc1 ?
Data returned: -1

Data request: Per the assay record, what outcome was assigned to [O]=[Sn]([CH]1CCCCC1)[CH]1CCCCC1 ?
Data returned: 1
